The measurements presented in this section are drawn from patent US20250257130A1.

Measured TOP by item
- SYSTEM NAME: T1, human ROR1 on cells (HEK293T-hROR1, PANC-1, A549) (human, UniProt Q01973 30-937)
- T1 construct: whole, on cells; one molecule for the three cell lines; also called huROR1; cell surface ROR1
- T1 sequence (Q01973 30-937): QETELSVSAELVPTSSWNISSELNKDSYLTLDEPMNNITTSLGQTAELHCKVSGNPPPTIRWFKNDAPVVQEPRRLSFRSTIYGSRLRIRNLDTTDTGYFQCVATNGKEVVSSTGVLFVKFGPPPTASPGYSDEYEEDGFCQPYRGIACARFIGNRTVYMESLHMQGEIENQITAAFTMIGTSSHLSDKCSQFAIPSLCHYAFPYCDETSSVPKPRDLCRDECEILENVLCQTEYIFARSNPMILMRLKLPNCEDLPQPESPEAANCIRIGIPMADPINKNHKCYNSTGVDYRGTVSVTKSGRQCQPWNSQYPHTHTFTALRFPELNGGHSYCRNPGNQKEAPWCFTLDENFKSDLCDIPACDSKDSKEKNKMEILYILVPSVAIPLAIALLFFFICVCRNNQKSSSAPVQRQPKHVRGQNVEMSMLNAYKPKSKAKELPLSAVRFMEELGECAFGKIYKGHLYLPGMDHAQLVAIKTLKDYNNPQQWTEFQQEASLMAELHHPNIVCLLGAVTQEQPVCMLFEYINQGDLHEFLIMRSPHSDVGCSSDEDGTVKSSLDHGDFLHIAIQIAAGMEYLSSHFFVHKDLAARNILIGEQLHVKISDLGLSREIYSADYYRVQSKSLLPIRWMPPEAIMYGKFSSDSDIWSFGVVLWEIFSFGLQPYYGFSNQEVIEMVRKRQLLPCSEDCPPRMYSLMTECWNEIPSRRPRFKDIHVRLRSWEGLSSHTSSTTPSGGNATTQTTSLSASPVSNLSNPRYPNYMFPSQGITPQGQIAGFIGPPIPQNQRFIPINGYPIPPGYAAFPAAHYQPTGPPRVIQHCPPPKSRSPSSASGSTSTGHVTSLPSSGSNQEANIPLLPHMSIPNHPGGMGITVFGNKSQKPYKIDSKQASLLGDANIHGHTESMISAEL
- METHOD DESCRIPTION: flow cytometry, PANC-1 cells
PROPERTY MEASURED: TOP

{"columns": ["BINDER", "TEST VALUE"],
 "data": [
  ["PR007424 (antibody, V domains shown, bivalent form (HCAb) variant of PR005340, no light chain) VH: EVQLVESGGGLVKPGGSLRLSCAASGFTFSDYYMSWIRQAPGKGLEWISYIDSSGRPLAYADSVKGRFTISRDNAKNSLYLQMNSLRAEDTAIYYCARDMPSSSSDWVSLQFDYWGQGTLVTVSS", 70800],
  ["PR007413 (antibody, V domains shown, bivalent form (HCAb) variant of PR005340, no light chain) VH: EVQLVESGGGLVKPGGSLRLSCAASGFTFSDFYMSWIRQAPGKGLEWISYINTRGSPIGYADSVKGRFTISRDNAKNSLYLQMNSLRAEDTAIYYCARDMPSSSSDWVDLQFDYWGQGTLVTVSS", 89800],
  ["PR007419 (antibody, V domains shown, bivalent form (HCAb) variant of PR005340, no light chain) VH: EVQLVESGGGLVKPGGSLRLSCAASGFTFSDFYMSWIRQAPGKGLEWISYINTRGSPIGYADSVKGRFTISRDNAKNSLYLQMNSLRAEDTAIYYCARDMPSSSSDWVSLQFDYWGQGTLVTVSS", 75700]
]}
